# Measured target: B. subtilis RNAP (Bacillus subtilis, UniProt P37870+P37871)
# Construct: endogenous in cells; host or cells: Bacillus subtilis strain PL37 (built from strain 168)
# Sequence (P37871 whole entry): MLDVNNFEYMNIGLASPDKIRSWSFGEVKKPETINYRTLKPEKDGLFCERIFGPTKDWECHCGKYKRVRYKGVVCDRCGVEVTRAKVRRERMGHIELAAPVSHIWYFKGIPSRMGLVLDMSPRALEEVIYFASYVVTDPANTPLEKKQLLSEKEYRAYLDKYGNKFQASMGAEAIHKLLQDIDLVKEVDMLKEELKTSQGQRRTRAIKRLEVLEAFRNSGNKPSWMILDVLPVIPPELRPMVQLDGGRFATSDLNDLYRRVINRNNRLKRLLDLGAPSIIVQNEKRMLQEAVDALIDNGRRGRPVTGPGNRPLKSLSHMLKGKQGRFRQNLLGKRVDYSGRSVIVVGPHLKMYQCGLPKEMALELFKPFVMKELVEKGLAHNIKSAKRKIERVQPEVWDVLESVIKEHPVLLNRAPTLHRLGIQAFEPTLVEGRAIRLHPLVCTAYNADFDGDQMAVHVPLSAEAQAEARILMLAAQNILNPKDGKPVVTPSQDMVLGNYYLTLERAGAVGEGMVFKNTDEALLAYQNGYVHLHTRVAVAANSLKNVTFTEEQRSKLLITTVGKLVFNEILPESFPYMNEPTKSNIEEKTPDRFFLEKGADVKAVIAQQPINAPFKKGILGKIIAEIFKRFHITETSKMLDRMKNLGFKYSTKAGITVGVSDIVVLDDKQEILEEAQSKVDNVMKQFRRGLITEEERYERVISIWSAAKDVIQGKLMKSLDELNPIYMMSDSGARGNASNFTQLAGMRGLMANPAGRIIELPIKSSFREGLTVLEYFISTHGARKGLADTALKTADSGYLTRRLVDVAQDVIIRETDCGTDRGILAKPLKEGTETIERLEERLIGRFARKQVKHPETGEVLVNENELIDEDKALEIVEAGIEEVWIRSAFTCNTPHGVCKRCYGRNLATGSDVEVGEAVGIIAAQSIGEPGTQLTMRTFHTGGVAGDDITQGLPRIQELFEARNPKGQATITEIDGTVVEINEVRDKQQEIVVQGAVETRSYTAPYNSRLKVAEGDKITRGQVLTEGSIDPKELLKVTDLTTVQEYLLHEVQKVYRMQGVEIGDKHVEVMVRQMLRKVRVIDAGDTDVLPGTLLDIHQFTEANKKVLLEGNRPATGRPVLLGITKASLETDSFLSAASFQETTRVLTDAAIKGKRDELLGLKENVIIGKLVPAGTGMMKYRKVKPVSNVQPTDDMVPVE
# Sequence (P20429 whole entry, further chain): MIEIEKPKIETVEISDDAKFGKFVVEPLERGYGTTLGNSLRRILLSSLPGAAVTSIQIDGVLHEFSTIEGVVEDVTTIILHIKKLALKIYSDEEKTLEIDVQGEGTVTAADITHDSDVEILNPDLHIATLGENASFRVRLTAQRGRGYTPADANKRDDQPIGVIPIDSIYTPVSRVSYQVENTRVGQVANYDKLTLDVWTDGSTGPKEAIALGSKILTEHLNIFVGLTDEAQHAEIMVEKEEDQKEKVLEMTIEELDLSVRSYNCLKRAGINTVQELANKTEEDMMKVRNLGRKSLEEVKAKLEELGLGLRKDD
# Sequence (O35011 whole entry, further chain): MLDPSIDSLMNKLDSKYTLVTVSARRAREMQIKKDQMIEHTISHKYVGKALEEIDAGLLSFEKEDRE
# Sequence (P37870 whole entry): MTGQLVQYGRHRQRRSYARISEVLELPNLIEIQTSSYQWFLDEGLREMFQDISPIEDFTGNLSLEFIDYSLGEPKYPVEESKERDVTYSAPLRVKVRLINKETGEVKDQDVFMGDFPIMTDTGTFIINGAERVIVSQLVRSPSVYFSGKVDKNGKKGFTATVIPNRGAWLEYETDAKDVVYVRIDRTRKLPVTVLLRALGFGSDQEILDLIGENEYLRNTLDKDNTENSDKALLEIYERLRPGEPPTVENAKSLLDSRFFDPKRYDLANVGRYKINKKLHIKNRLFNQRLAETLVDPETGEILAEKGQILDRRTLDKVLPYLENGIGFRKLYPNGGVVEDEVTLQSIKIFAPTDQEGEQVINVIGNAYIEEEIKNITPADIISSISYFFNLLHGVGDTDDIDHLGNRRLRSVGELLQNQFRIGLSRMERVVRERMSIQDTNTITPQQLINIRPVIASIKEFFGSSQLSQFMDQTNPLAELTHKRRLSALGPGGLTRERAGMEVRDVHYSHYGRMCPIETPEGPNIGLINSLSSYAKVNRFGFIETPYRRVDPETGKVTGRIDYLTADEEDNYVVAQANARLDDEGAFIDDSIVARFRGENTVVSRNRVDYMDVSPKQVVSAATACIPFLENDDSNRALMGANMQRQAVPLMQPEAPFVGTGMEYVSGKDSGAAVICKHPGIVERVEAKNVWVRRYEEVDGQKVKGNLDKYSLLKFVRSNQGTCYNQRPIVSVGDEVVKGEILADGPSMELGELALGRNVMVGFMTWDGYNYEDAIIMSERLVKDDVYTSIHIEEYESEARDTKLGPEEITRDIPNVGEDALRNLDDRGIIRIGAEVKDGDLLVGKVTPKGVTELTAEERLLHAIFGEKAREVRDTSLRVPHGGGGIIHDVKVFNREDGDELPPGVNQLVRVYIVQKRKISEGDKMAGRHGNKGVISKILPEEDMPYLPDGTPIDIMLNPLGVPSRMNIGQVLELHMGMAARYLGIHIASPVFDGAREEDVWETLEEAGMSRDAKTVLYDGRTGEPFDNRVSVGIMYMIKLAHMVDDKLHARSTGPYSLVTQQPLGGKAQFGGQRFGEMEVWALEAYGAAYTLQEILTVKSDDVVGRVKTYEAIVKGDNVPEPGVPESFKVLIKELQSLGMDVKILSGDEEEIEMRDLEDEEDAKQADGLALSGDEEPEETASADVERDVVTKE
# Procedure summary: Dual reporter assay in strain PL37: test reporter Pxyl-lacZ and ratio of control to test reporter (RES:MUG)
# Assay type: cell-based
# Details: strain PL37; Dilution Number 11 (lowest concentration tested: 0.125, 0.016 or 0.0005 μg/ml depending on antibiotic); DMSO control […]
Positions of bridges follow the written chain, without caps; N, C: chain ends. Non-standard residues stand in square brackets, D forms with d. Residues, ends and D or L forms follow the SMILES beside them. *: point of attachment. Ileψ(thiazoline)Cys = CC[C@H](C)[C@H](N)C1=N[C@H](C(=O)*)CS1; dOrn = NCCC[C@@H](N)C(=O)O
// values below are reported Ratio of the control reporter (RES): test reporter (MUG)
Readout: Ratio of the control reporter (RES): test reporter (MUG)

Compound | Measured target | Recorded value
CC1(C)S[C@@H]2[C@H](NC(=O)C(C(=O)O)c3ccccc3)C(=O)N2[C@H]1C(=O)O (some centres unmarked) [Carbenicillin] | B. subtilis RNAP (Bacillus subtilis, UniProt P37870+P37871) | 1.07
O=C(N[C@H](CO)[C@H](O)c1ccc([N+](=O)[O-])cc1)C(Cl)Cl [Chloramphenicol] | B. subtilis RNAP (Bacillus subtilis, UniProt P37870+P37871) | 1.17
CC[C@H](C)[C@H](N)C1=N[C@H](C(=O)N[C@@H](CC(C)C)C(=O)N[C@H](CCC(=O)O)C(=O)N[C@H](C(=O)N[C@H]2CCCCNC(=O)[C@H](CC(N)=O)NC(=O)[C@@H](CC(=O)O)NC(=O)[C@H](Cc3cnc[nH]3)NC(=O)[C@@H](Cc3ccccc3)NC(=O)[C@H]([C@@H](C)CC)NC(=O)[C@@H](CCCN)NC2=O)[C@@H](C)CC)CS1 [Bacitracin] ({Ileψ(thiazoline)Cys}-L[dE]IK[dOrn]I[dF]H[dD]N; lactam 4-C) | B. subtilis RNAP (Bacillus subtilis, UniProt P37870+P37871) | 1.13
CCC[C@@H]1C[C@@H](C(=O)N[C@@H]([C@H]2O[C@H](SC)[C@H](O)[C@@H](O)[C@H]2O)[C@@H](C)O)N(C)C1 [Lincomycin] | B. subtilis RNAP (Bacillus subtilis, UniProt P37870+P37871) | 1.08
CC1(C)S[C@@H]2[C@H](NC(=O)Cc3ccccc3)C(=O)N2[C@H]1C(=O)O [Penicillin G] | B. subtilis RNAP (Bacillus subtilis, UniProt P37870+P37871) | 1.07
